# protocol: LNP size and polydispersity index (PDI) by dynamic light scattering (DLS)
# Type: physicochemical
# study-conditions: Table 1; LNP lipid:DSPC:Cholesterol:DMG-PEG2k 50:10:38.5:1.5 mol %; hEPO mRNA; N:P 6
Parameter Size: see the listing below.

- compound: "CCCCCCCCCC(=O)OCCN(CCOC(=O)CCCCCCCCC)C(=O)CN [Compound 104]"
  Size (nm): 74.7
- compound: "CCCCCCCC/C=C\\CCCCCCCC(=O)OCCN(CCOC(=O)CCCCCCC/C=C\\CCCCCCCC)C(=O)CN [Compound 101]"
  Size (nm): 62.6
- compound: "CCCCCCCCCC(=O)OCCN(CCOC(=O)CCCCCCCCC)C(=O)C(C)N (centres unmarked) [Compound 110]"
  Size (nm): 57.7
- compound: "CCCCCCCC/C=C\\CCCCCCCC(=O)OCCN(CCOC(=O)CCCCCCC/C=C\\CCCCCCCC)C(=O)C(N)Cc1c[nH]cn1 (centres unmarked) [Compound 125]"
  Size (nm): 109.4
- compound: "CCCCCCCCCCCC(=O)OCCN(CCOC(=O)CCCCCCCCCCC)C(=O)C(N)Cc1c[nH]cn1 (centres unmarked) [Compound 127]"
  Size (nm): 85.9
- compound: "CCCCCCCCC(CCCCCC)C(=O)OCCN(CCOC(=O)C(CCCCCC)CCCCCCCC)C(=O)CN (centres unmarked) [Compound 105]"
  Size (nm): 72.6
- compound: "CCCCCCCCCC(=O)OCCN(CCOC(=O)CCCCCCCCC)C(=O)C(N)Cc1c[nH]cn1 (centres unmarked) [Compound 128]"
  Size (nm): 77.8
- compound: "CCCCCCCCC(CCCCCC)C(=O)OCCN(CCOC(=O)C(CCCCCC)CCCCCCCC)C(=O)C(C)N (centres unmarked) [Compound 111]"
  Size (nm): 93.4

###

# protocol: LNP Zeta potential measured using a Zetasizer (Malvern)
# Assay type: physicochemical
# study-conditions: Table 10; LNP with hEPO mRNA, Lipid:DSPC:Cholesterol:DMG-PEG2k 50:10:38.5:1.5 mol %, N:P ratio 6
readout: Zeta potential (mV)

- molecule: "CC/C=C\\CCCCC(=O)OCCN(CCOC(=O)C(CCCCCC)CCCCCCCC)C(=O)CCN(CC)CC (centres unmarked) [Compound 917c]"
  readout: "Zeta potential (mV)"
  obs-value: "−4.5 mV"
- molecule: "CCCCCCCCCC(CCCCCCCCC)C(=O)OCCN(CCOC(=O)C(CCCCCCCCC)CCCCCCCCC)C(=O)CCN(CC)CC [Compound 917f]"
  readout: "Zeta potential (mV)"
  obs-value: "−11.1 mV"
- molecule: "CCCCCCCC/C=C\\CCCCCCCC(=O)OCCN(CCOC(=O)C(CCCCCC)CCCCCCCC)C(=O)CCN(CC)CC (centres unmarked) [Compound 917a]"
  readout: "Zeta potential (mV)"
  obs-value: "−5.5 mV"
- molecule: "CCCCCCCC/C=C\\CCCCCCCC(=O)OCCN(CCOC(=O)C(CCCCCC)CCCCCCCC)C(=O)CCN1CCCCC1 (centres unmarked) [Compound 917h]"
  readout: "Zeta potential (mV)"
  obs-value: "−8.2 mV"
- molecule: "CCCCCCCCCC(CCCCCCCCC)C(=O)OCCN(CCOC(=O)C(CCCCCCCCC)CCCCCCCCC)C(=O)CCN(C)CCC [Compound 917g]"
  readout: "Zeta potential (mV)"
  obs-value: "−10.2 mV"

###

# protocol: LNP size and polydispersity index (PDI) by dynamic light scattering (DLS)
# Assay type: physicochemical
# study-conditions: Table 3; LNP lipid:DSPC:Cholesterol:DMG-PEG2k 50:10:38.5:1.5 mol %; hEPO mRNA; N:P 6
readout: Size (nm)

- compound: "CCCCCCCCC(CCCCCC)C(=O)OCCN(CCOC(=O)C(CCCCCC)CCCCCCCC)C(=O)C(C)N (centres unmarked) [Compound 111]"
  obs-value: 100.9
- compound: "CCCCCCCC/C=C\\CCCCCCCC(=O)OCCN(CCOC(=O)CCCCCCC/C=C\\CCCCCCCC)C(=O)[C@@H](N)Cc1ccccc1.Cl [Compound 202]"
  obs-value: 60.7
- compound: "CCCCCCCC/C=C\\CCCCCCCC(=O)OCCN(CCOC(=O)CCCCCCC/C=C\\CCCCCCCC)C(=O)C(N)Cc1ccccc1 (centres unmarked) [Compound 113]"
  obs-value: 61.4
- compound: "CCCCCCCC/C=C\\CCCCCCCC(=O)OCCN(CCOC(=O)CCCCCCC/C=C\\CCCCCCCC)C(=O)C(C)N (centres unmarked) [Compound 107]"
  obs-value: 60.6
- compound: "CCCCCCCC/C=C\\CCCCCCCC(=O)OCCN(CCOC(=O)CCCCCCC/C=C\\CCCCCCCC)C(=O)[C@H](C)N.Cl [Compound 201]"
  obs-value: 63.1
- compound: "CCCCCCCCC(CCCCCC)C(=O)OCCN(CCOC(=O)C(CCCCCC)CCCCCCCC)C(=O)CN (centres unmarked) [Compound 105]"
  obs-value: 162.2
- compound: "CCCCCCCCC(CCCCCC)C(=O)OCCN(CCOC(=O)C(CCCCCC)CCCCCCCC)C(=O)CNCCO (centres unmarked) [Compound 305]"
  obs-value: 53.3
- compound: "CCCCCCCCC(CCCCCC)C(=O)OCCN(CCOC(=O)C(CCCCCC)CCCCCCCC)C(=O)C(N)Cc1ccccc1 (centres unmarked) [Compound 117]"
  obs-value: 70.6

###

# protocol: Encapsulation efficiency (EE %) by fluorescence based Ribogreen assay
# Format: physicochemical
# study-conditions: Table 8; LNP 50:10:38.5:1.5 mol %; hEPO mRNA; N:P 6
readout: Encapsulation Efficiency % (%)

- compound: "CCCCCCCCC(CCCCCC)C(=O)OCCN(CCOC(=O)C(CCCCCC)CCCCCCCC)C(=O)CCCN(C)CCO.Cl (centres unmarked) [Compound 986]"
  readout: "Encapsulation Efficiency %"
  units-label: "%"
  obs-value: 99.9
- compound: "CCCCCCCCC(CCCCCC)C(=O)OCCN(CCOC(=O)C(CCCCCC)CCCCCCCC)C(=O)C(C)CNCC.Cl (centres unmarked) [Compound 925]"
  readout: "Encapsulation Efficiency %"
  units-label: "%"
  obs-value: 99.9
- compound: "CCCCCCCCC(CCCCCC)C(=O)OCCN(CCOC(=O)C(CCCCCC)CCCCCCCC)C(=O)CCNCC.Cl (centres unmarked) [Compound 905]"
  readout: "Encapsulation Efficiency %"
  units-label: "%"
  obs-value: 100
- compound: "CCCCCCCCC(CCCCCC)C(=O)OCCN(CCOC(=O)C(CCCCCC)CCCCCCCC)C(=O)CCCN1CCCC1.Cl (centres unmarked) [Compound 982]"
  readout: "Encapsulation Efficiency %"
  units-label: "%"
  obs-value: 99.9
- compound: "CCCCCCCCCC(CCCCCCCC)C(=O)OCCN(CCOC(=O)C(CCCCCCCC)CCCCCCCCC)C(=O)CCCN(C)C.Cl (centres unmarked) [Compound 933]"
  readout: "Encapsulation Efficiency %"
  units-label: "%"
  obs-value: 99.2
- compound: "CCCCCCCCC(CCCCCC)C(=O)OCCN(CCOC(=O)C(CCCCCC)CCCCCCCC)C(=O)CCNC.Cl (centres unmarked) [Compound 904]"
  readout: "Encapsulation Efficiency %"
  units-label: "%"
  obs-value: 100
- compound: "CCCCCCCCC(CCCCCC)C(=O)OCCN(CCOC(=O)C(CCCCCC)CCCCCCCC)C(=O)CCCNCC.Cl (centres unmarked) [Compound 935]"
  readout: "Encapsulation Efficiency %"
  units-label: "%"
  obs-value: 99.9
- compound: "CCCCCCCCC(CCCCCC)C(=O)OCCN(CCOC(=O)C(CCCCCC)CCCCCCCC)C(=O)CCCN(CC)CC.Cl (centres unmarked) [Compound 937]"
  readout: "Encapsulation Efficiency %"
  units-label: "%"
  obs-value: 99.9
- compound: "CCCCCCCCC(CCCCCC)C(=O)OCCN(CCOC(=O)C(CCCCCC)CCCCCCCC)C(=O)CCNCCC.Cl (centres unmarked) [Compound 908]"
  readout: "Encapsulation Efficiency %"
  units-label: "%"
  obs-value: 100
- compound: "CCCCCCCCC(CCCCCC)C(=O)OCCN(CCOC(=O)C(CCCCCC)CCCCCCCC)C(=O)CCCN(C)C (centres unmarked) [Compound 931]"
  readout: "Encapsulation Efficiency %"
  units-label: "%"
  obs-value: 99.9
- compound: "CCCCCCCCC(CCCCCC)C(=O)OCCN(CCOC(=O)C(CCCCCC)CCCCCCCC)C(=O)CCCN1CCCCC1.Cl (centres unmarked) [Compound 983]"
  readout: "Encapsulation Efficiency %"
  units-label: "%"
  obs-value: 97.1
- compound: "CCCCCCCCC(CCCCCC)C(=O)OCCN(CCOC(=O)C(CCCCCC)CCCCCCCC)C(=O)C(C)CNCCC.Cl (centres unmarked) [Compound 928]"
  readout: "Encapsulation Efficiency %"
  units-label: "%"
  obs-value: 91.8
- compound: "CCCCCCCCC(CCCCCC)C(=O)OCCN(CCOC(=O)C(CCCCCC)CCCCCCCC)C(=O)CCCN(C)CC.Cl (centres unmarked) [Compound 936]"
  readout: "Encapsulation Efficiency %"
  units-label: "%"
  obs-value: 99.9
- compound: "CCCCCCCCC(CCCCCC)C(=O)OCCN(CCOC(=O)C(CCCCCC)CCCCCCCC)C(=O)CCCN(C)CCC.Cl (centres unmarked) [Compound 938]"
  readout: "Encapsulation Efficiency %"
  units-label: "%"
  obs-value: 99.9

Source of measurements: patent US20250268826A1
